pIC50: −log10 of the molar value.
The following are reported pIC50 results, target or system PIP4K2A (full length protein, SignalChem) (Homo sapiens).

Example results:
CN(C)C(=O)c1ccc(-c2cncc(-c3cnc4c(ccn4C)c3)c2)cc1 ... 5.60 to 6.00
O=C(Nc1ccccn1)c1cc2c(-c3cncc(-c4ccc(N5CCCC5=O)cc4)c3)ccnc2[nH]1 ... 5.60 to 6.00
O=C1CCCN1c1ccc(-c2cncc(-c3ccnc4c3cc3n4CCN(c4ccc5c(n4)OCCO5)C3=O)c2)cc1 ... 6.00 to 7.00

--- query ---
Prompt: Enter reported pIC50 observed with PIP4K2A (full length protein, SignalChem) (Homo sapiens) for "CNC(=O)c1cnc2c(c1)c(-c1cncc(-c3ccc(N4CCCC4=O)cc3)c1)cn2C"
Response: 7.00 to 8.30

====

pIC50: −log10 of the molar value.
The following are reported pIC50 results, target or system GST tagged PIP4KtypeIIA (Homo sapiens).

Nc1ncc(-c2ccnc3c2cc2n3CCN(CC3CC3)C2=O)cc1-c1ccc(N2CCCC2=O)cc1 ... 7.00 to 8.00

Prompt: Enter reported pIC50 observed with GST tagged PIP4KtypeIIA (Homo sapiens) for "Cn1cc(-c2cnc(N)c(-c3ccc(N4CCCC4=O)cc3)c2)c2cc(N3CCCC3=O)cnc21"
Response: 6.00 to 7.00

Prompt: Enter reported pIC50 observed with GST tagged PIP4KtypeIIA (Homo sapiens) for "CNC(=O)c1cc2c(-c3cncc(-c4ccc(N5CCCC5=O)cc4)c3)ccnc2o1"
Response: 7.00 to 8.00

Prompt: Enter reported pIC50 observed with GST tagged PIP4KtypeIIA (Homo sapiens) for "CN(C)C(=O)c1cc2c(-c3cncc(-c4ccc(N5CCCC5=O)cc4)c3)cn(C)c2c(=O)n1C"
Response: 6.00 to 7.00

Prompt: Enter reported pIC50 observed with GST tagged PIP4KtypeIIA (Homo sapiens) for "N#Cc1[nH]c2ncccc2c1-c1cncc(-c2ccc(N3CCCC3=O)cc2)c1"
Response: 6.00 to 7.00

Prompt: Enter reported pIC50 observed with GST tagged PIP4KtypeIIA (Homo sapiens) for "C[C@H]1CC(=O)N(c2ccc(-c3cncc(-c4ccnc5c4cc4n5CCN(C)C4=O)c3)cc2)C1"
Response: 6.00 to 7.00

Prompt: Enter reported pIC50 observed with GST tagged PIP4KtypeIIA (Homo sapiens) for "CN(C)C(=O)c1ccc(-c2cc(-c3ccnc4nc[nH]c34)cnc2N)nc1"
Response: 5.30 to 5.60

Prompt: Enter reported pIC50 observed with GST tagged PIP4KtypeIIA (Homo sapiens) for "CN(C)C(=O)c1ccc(-c2cc(-c3ccnc4[nH]c(C(=O)NCc5cccnc5)cc34)cnc2N)nc1"
Response: 6.00 to 7.00

Prompt: Enter reported pIC50 observed with GST tagged PIP4KtypeIIA (Homo sapiens) for "O=C(O)c1cc2c(-c3cncc(-c4ccc(N5CCCC5=O)cc4)c3)ccnc2[nH]1"
Response: 6.00 to 7.00

Prompt: Enter reported pIC50 observed with GST tagged PIP4KtypeIIA (Homo sapiens) for "CN(C[C@H]1CC[C@H](N)CC1)C(=O)c1ccc(-c2cncc(-c3ccncc3)c2)cc1"
Response: < 5.30

====

The following are reported IC50 results, target or system PIP4K2A (full length protein, SignalChem) (Homo sapiens, UniProt P48426).

Example results:
CC(C)Cn1cnnc1-c1ccc(-c2cncc(-c3ccnc4c3cc3n4CCN(c4ccccn4)C3=O)c2)cc1 ... 2500 to 5000 nM
CNC(=O)c1cc2c(-c3cnc(N)c(-c4ccc(-c5nncn5CC(C)C)cc4)c3)ccnc2o1 ... 5 to 100 nM
CN(C)C(=O)c1ccc(-c2cncc(-c3c[nH]c4ncccc34)c2)cc1 ... 100 to 1000 nM
Cn1cc(-c2cnc(N)c(-c3ccc(N4CCCC4=O)cc3)c2)c2cccnc21 ... 5 to 100 nM
CN(C)C(=O)c1ccc(-c2cc(-c3ccnc4[nH]c(C(=O)N5CCOCC5)cc34)cnc2N)nc1 ... 100 to 1000 nM
CN(C)C(=O)c1ccc(-c2cncc(-c3ccnc(C(C)(C)O)c3)c2)cc1 ... 1000 to 2500 nM
Cc1c[nH]c2nccc(-c3cc(-c4ccc(N5CCCC5=O)cc4)cnc3N)c12 ... 1000 to 2500 nM

Prompt: Enter reported IC50 observed with PIP4K2A (full length protein, SignalChem) (Homo sapiens, UniProt P48426) for "O=C1CCCN1c1ccc(-c2cncc(-c3cn(CC4CCOCC4)c(=O)c4[nH]ncc34)c2)cc1"
Sequence (P48426 whole entry): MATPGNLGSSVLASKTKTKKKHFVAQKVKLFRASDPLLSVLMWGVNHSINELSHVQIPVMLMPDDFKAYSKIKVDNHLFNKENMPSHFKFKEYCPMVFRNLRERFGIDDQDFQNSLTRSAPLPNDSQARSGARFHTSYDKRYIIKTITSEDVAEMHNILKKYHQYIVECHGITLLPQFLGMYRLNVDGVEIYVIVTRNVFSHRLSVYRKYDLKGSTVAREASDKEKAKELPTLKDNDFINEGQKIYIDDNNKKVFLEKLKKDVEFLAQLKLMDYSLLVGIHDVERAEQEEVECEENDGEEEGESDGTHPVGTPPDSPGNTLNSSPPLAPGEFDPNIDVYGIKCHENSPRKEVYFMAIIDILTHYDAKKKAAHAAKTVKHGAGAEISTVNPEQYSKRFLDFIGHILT
Response: 5 to 100 nM
